What melting point was measured for each of the following?
Counter-ions that a name gives are not always drawn.

A selection of reference data follows.
>  <Molecule>
O=C(OC(C(F)(F)F)C(F)(F)F)N1CCC(CNS(=O)(=O)c2cccc3nsnc23)CC1

>  <Obs Value>
146 to 148 °C

$$$$
>  <Molecule>
O=C(Nc1cccc(Cl)c1)NC1CCN(C(=O)OC(C(F)(F)F)C(F)(F)F)CC1

>  <Obs Value>
204 to 206 °C

$$$$
>  <Molecule>
O=C(OC(C(F)(F)F)C(F)(F)F)N1CCC(CNS(=O)(=O)c2cccc3ccccc23)C1 (centres unmarked)

>  <Obs Value>
135 to 136 °C

$$$$
>  <Molecule>
CN(C(=O)NCCC1CN(C(=O)OC(C(F)(F)F)C(F)(F)F)C1)c1ccccc1

>  <Obs Value>
101 to 102 °C

$$$$
>  <Molecule>
NC(=O)c1cnn(CC2CCN(C(=O)OC(C(F)(F)F)C(F)(F)F)CC2)c1

>  <Obs Value>
98 to 118 °C

$$$$

Lab note: each molecule below needs its melting point filled in.
1. CC(C)(Oc1ccc(Cl)cc1)C(=O)NCC1CCN(C(=O)OC(C(F)(F)F)C(F)(F)F)CC1
2. O=C(OC(C(F)(F)F)C(F)(F)F)N1CCC(Nc2ccc(C(F)(F)F)cn2)CC1 (as salt: hydrochloride)
3. N#Cc1ccc(C2CCN(C(=O)OC(C(F)(F)F)C(F)(F)F)CC2)cc1

Response:
1: 77 to 78 °C; 2: 225 to 235 °C (dec.); 3: 54 to 56 °C

* * *

What pIC50 was measured for each of the following?
Target: enzyme MGL (monoacyl glycerol lipase) (Mus musculus)
Sequence (O35678 1-303): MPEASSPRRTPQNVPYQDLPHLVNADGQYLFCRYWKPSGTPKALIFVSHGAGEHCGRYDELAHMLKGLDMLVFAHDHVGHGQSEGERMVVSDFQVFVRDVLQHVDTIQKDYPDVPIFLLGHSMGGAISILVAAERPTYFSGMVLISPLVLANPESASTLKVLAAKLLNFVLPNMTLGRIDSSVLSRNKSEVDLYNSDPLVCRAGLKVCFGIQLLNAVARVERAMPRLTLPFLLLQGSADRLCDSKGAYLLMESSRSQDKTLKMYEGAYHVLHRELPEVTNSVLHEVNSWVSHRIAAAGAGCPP
Numbers only, as −log10 of the molar value.

A selection of reference data follows.
>  <Compound>
O=C(OC(C(F)(F)F)C(F)(F)F)N1CCC(n2nnc3cc(C(F)(F)F)ccc32)CC1 [Compound 13]

>  <Obs Value>
8.22

$$$$
>  <Compound>
O=C(OC(C(F)(F)F)C(F)(F)F)N1CCC(CNS(=O)(=O)c2cccc3nsnc23)CC1 [Compound 211]

>  <Obs Value>
8.15

$$$$
>  <Compound>
N#Cc1cccc(-c2nccc(NC3CCN(C(=O)OC(C(F)(F)F)C(F)(F)F)CC3)n2)c1 [Compound 70]

>  <Obs Value>
8.30

$$$$

Moving on to the next compound.
Value of pIC50 reported for the compound O=C(NCCC1CN(C(=O)OC(C(F)(F)F)C(F)(F)F)C1)Nc1cccc(Cl)c1 [Compound 188] is 8.96

These data points were gathered from patent US8835418B2.
